method.summary: […] stability in rat hepatocyte assessed as intrinsic clearance measured per million of cells
Format: ADME, cell-based
condition.summary: hepatocytes
outcome.measure: CLH (µL/min)

Observe how each entry below is paired with its result.
# compound, value.units, CLH
data = [
    ("C=CC(=O)N1CCN(c2nc(=O)n(-c3c(C)ccnc3C(C)C)c3nc(-c4c(O)cccc4F)c(F)cc23)[C@@H](C)C1", "µL/min", 18),
    ("C=CC(=O)N1CCN2C(=O)c3cc(OCCOC)c(-c4c(O)cccc4Cl)c(F)c3OC[C@H]2C1", "µL/min", 48),
]

1. C=CC(=O)N1CCN2Cc3cc(F)c(-c4c(O)cccc4Cl)c(F)c3OC[C@H]2C1.O
2. C=CC(=O)N1CCN2Cc3cc(C4CC4)c(-c4c(O)cccc4Cl)c(F)c3OC[C@H]2C1
3. C=CC(=O)N1CCN2Cc3ccc(-c4c(C)ccc5[nH]ncc45)c(Cl)c3OCCC2C1 (stereo in doubt; 19)
4. C=CC(=O)N1CCN2Cc3cc(F)c(-c4c(C)cccc4O)c(F)c3OC[C@H]2C1
Exam item: list the entries in increasing order of CLH. Your answer should be the labels, listed in the requested order.
1, 4, 2, 3
(1: 20 µL/min, 4: 29 µL/min, 2: 101 µL/min, 3: 234 µL/min)

P. C=C(F)C(=O)N1CCN(c2nc(OC[C@@H]3CCCN3C)nc3c2CCN(c2cccc4cccc(Cl)c24)C3)C[C@@H]1CC#N
Q. C#Cc1cc(CN2CCN(C(=O)C=C)CC2)cc(F)c1-c1c(O)cccc1Cl
Consider entries P and Q . Which has the numerically lower CLH? Answer with the label corresponding to your selection.
P
(P: 12 µL/min, Q: 38 µL/min)

* * *

method.summary: Observed clearance in Beagle dog at 1.1 microM/Kg, iv
Assay type: ADME, Canis lupus familiaris
condition.summary: in vivo
outcome.measure: clearance (mL/min/kg)
Give your result in mL/min/kg as a bare value.

Please give the measured clearance for this compound: "C=CC(=O)N1CCN2Cc3cc(C#CC)c(-c4c(O)cccc4Cl)c(F)c3OC[C@H]2C1"
10

* * *

method.summary: […] stability in rat hepatocyte assessed as intrinsic clearance measured per million of cells
Type: ADME, cell-based
condition.summary: hepatocytes
outcome.measure: CLH (µL/min)

Observe how each entry below is paired with its result.
# compound, value.units, recorded.result
rows = [
    ("C=CC(=O)N1CCN2Cc3cc(OC)c(-c4c(O)cccc4Cl)c(F)c3OC[C@H]2C1", "µL/min", 59),
    ("C=CC(=O)N1CCN2Cc3cc(OCCN(C)C)c(-c4c(O)cccc4Cl)c(F)c3OC[C@H]2C1", "µL/min", 8),
    ("C=CC(=O)N1CCN2Cc3cc(OC4CC4)c(-c4c(O)cccc4Cl)c(F)c3OC[C@H]2C1", "µL/min", 174),
    ("C=CC(=O)N1CCN2Cc3ccc(-c4c(C)ccc5[nH]ncc45)c(Cl)c3OC[C@H]2C1", "µL/min", 156),
    ("C=CC(=O)N1CCN2Cc3cc(C#N)c(-c4c(O)cccc4Cl)c(F)c3OC[C@H]2C1", "µL/min", 54),
    ("C#Cc1cc2c(c(F)c1-c1c(O)cccc1Cl)OC[C@H]1CN(C(=O)C=C)CCN1C2", "µL/min", 23),
    ("C=CC(=O)N1CCN2Cc3cc(F)c(-c4c(O)cccc4F)c(F)c3OC[C@H]2C1", "µL/min", 18),
    ("C=CC(=O)N1CCN2Cc3cc(F)c(-c4c(O)cccc4F)c(Cl)c3OC[C@H]2C1", "µL/min", 42),
]

P. C=CC(=O)N1CCN2C(=O)c3ccc(-c4c(C)ccc5[nH]ncc45)c(Cl)c3OC[C@@H]2C1
Q. C=CC(=O)N1CCN2Cc3cc(C#CC)c(-c4c(O)cccc4Cl)c(F)c3OC[C@H]2C1
Just curious, which one has the larger CLH reading, P or Q ? Answer with the label corresponding to your selection.
P
(P: 93 µL/min, Q: 34 µL/min)

* * *

method.summary: Unbound brain-to-plasma concentration ratio in Beagle dog at 170 to 680 microM/Kg, po QD for 15 days and measured 2 hrs last dose
Assay type: ADME, organism-based, Canis lupus familiaris
condition.summary: dose 170-680 µM/Kg, time 15 day, read-out: K(p,uu,brain)
outcome.measure: Kp uu at 360 h
# answer = number (no unit)

Please give the measured Kp uu at 360 h for this compound: "C=CC(=O)N1CCN2Cc3cc(C#CC)c(-c4c(O)cccc4Cl)c(F)c3OC[C@H]2C1"
0.7

* * *

System: NCI-H358
method.summary: Antiproliferative activity against human NCI-H358 cells harboring KRAS G12C mutant cultured as […] assessed as reduction in cell proliferation incubated for 3 days by CellTiter-Glo reagent based assay
Type: functional
condition.summary: NCI-H358, 72 h
outcome.measure: pIC50
Give only the number. pIC50 is defined as minus log10 of concentration in molar units.

Please give the measured pIC50 for this compound: "C=CC(=O)N1CCN2Cc3cc(C#CC)c(-c4c(O)cccc4Cl)c(F)c3OC[C@H]2C1"
6.44

* * *

method.summary: Observed clearance in Wistar Han rat at 1.1 to 2.3 microM/Kg, iv
Assay type: ADME
condition.summary: in vivo, dose 1.1-2.3 µM/Kg
outcome.measure: clearance (mL/min/kg)
Give your result in mL/min/kg as a bare value.

Please give the measured clearance for this compound: "C=CC(=O)N1CCN2Cc3cc(C#CC)c(-c4c(O)cccc4Cl)c(F)c3OC[C@H]2C1"
54

* * *

method.summary: Lipophilicity, logD of compound at 7.4
condition.summary: octanol/water, pH 7.4, logD
outcome.measure: logD

# molecule, logD
records = [
    ("C=CC(=O)N1CCN2Cc3cc(C#CC)c(-c4c(O)cccc4Cl)c(F)c3OC[C@H]2C1", 2.9),
]

1. C#Cc1cc2c(c(F)c1-c1c(O)cccc1Cl)OC[C@H]1CN(C(=O)C=C)CCN1C2
2. C=CC(=O)N1CCN2Cc3cc(OCCN(C)C)c(-c4c(O)cccc4Cl)c(F)c3OC[C@H]2C1
Consider entries 1 and 2 . Which has the numerically lower logD? Answer with the label corresponding to your selection.
2
(2: 1, 1: 2.7)

* * *

method.summary: Oral bioavailability in Wistar Han rat at 2.3 to 6.8 microM/Kg
Format: ADME, organism-based
condition.summary: in vivo, dose 2.3-6.8 µM/Kg
outcome.measure: bioavailability (%)
Give your result in % as a bare value.

Please give the measured bioavailability for this compound: "C=CC(=O)N1CCN2Cc3cc(C#CC)c(-c4c(O)cccc4Cl)c(F)c3OC[C@H]2C1"
18

* * *

method.summary: Lipophilicity, logD of compound at 7.4
condition.summary: octanol/water, pH 7.4, logD
outcome.measure: logD

Observe how each entry below is paired with its result.
# compound, logD
measured = [
    ("C=C(F)C(=O)N1CCN(c2nc(OC[C@@H]3CCCN3C)nc3c2CCN(c2cccc4cccc(Cl)c24)C3)C[C@@H]1CC#N [ADAGRASIB]", 3.6),
    ("C=CC(=O)N1CCN2Cc3cc(F)c(-c4c(O)cccc4F)c(F)c3OC[C@H]2C1", 2.5),
    ("C=CC(=O)N1CCN2Cc3cc(OC4CC4)c(-c4c(O)cccc4Cl)c(F)c3OC[C@H]2C1", 2.6),
    ("C=CC(=O)N1CCN2Cc3cc(F)c(-c4c(C)cccc4O)c(F)c3OC[C@H]2C1", 2.4),
    ("C=CC(=O)N1CCN2C(=O)c3cc(OCCOC)c(-c4c(O)cccc4Cl)c(F)c3OC[C@H]2C1", 2),
    ("C=CC(=O)N1CCN(c2nc(=O)n(-c3c(C)ccnc3C(C)C)c3nc(-c4c(O)cccc4F)c(F)cc23)[C@@H](C)C1 [SOTORASIB]", 2.3),
]

a. C=CC(=O)N1CCN2Cc3cc(C4CC4)c(-c4c(O)cccc4Cl)c(F)c3OC[C@H]2C1
b. C=CC(=O)N1CCN2Cc3cc(OC)c(-c4c(O)cccc4Cl)c(F)c3OC[C@H]2C1
Just curious, which one has the larger logD reading, a or b ? Answer with the label corresponding to your selection.
a

* * *

Tested on: MDR1 and BCRP
method.summary: Efflux ratio of apparent permeability in dog MDCK cells transfected with MDR1 and BCRP at 0.1 uM
Assay type: ADME, cell-based, Canis lupus familiaris
outcome.measure: efflux ratio at 0.1 µM

Observe how each entry below is paired with its result.
# compound, efflux ratio at 0.1 µM
rows = [
    ("C=CC(=O)N1CCN2Cc3cc(C#CC)c(-c4c(O)cccc4Cl)c(F)c3OC[C@H]2C1", 1.1),
    ("C=CC(=O)N1CCN2Cc3ccc(-c4c(C)ccc5[nH]ncc45)c(Cl)c3OCCC2C1 (stereo in doubt; 19)", 1.4),
]

I. C#Cc1cc2c(c(F)c1-c1c(O)cccc1Cl)OC[C@H]1CN(C(=O)C=C)CCN1C2
II. C=CC(=O)N1CCN2Cc3cc(F)c(-c4c(O)cccc4Cl)c(F)c3OC[C@H]2C1.O
Just curious, which one has the larger efflux ratio at 0.1 µM reading, I or II ? Answer with the label corresponding to your selection.
I
